Each entry below carries its recorded LogPapp.
- procedure-text: Octanol-water partition, shake flask (log Papp)
- Format: physicochemical
- condition: pH 7.4, Tris buffer
Keep it simple and answer with nothing but the number.

Some compounds with known LogPapp results, for comparison:
# molecule, data-value
data = [
    ("COCCOCCOc1ccc(C2=N[C@@](C)(C(=O)O)CS2)c(O)c1", "−0.89"),
    ("C[C@]1(C(=O)O)CSC(c2ccc(O)cc2O)=N1", "−1.05"),
    ("C[C@]1(C(=O)O)CSC(c2ccccc2O)=N1", "−0.34"),
    ("COCCOCCOc1cnc(C2=N[C@@](C)(C(=O)O)CS2)c(O)c1", "−1.59"),
    ("C[C@]1(C(=O)O)CSC(c2ncccc2O)=N1", "−1.77"),
]

In: Find the recorded LogPapp belonging to COCCOCCOc1cccc(C2=N[C@@](C)(C(=O)O)CS2)c1O and report it.
Out: −0.96

In: Find the recorded LogPapp belonging to C[C@]1(C(=O)O)CSC(c2ncc(O)cc2O)=N1 and report it.
Out: −1.68

In: Find the recorded LogPapp belonging to COCCOCCOc1ccnc(C2=N[C@@](C)(C(=O)O)CS2)c1O and report it.
Out: −1.38
